Entries and their measured composite z-score follow.
target: Neurogenic locus notch homolog protein 3 (Homo sapiens); experiment: NOTCH3 binders on small-molecule microarray, primary screen, biochemical, 635/667 nm fluorescence (AID 1096); details: NOTCH3 binding, 635 nm fluorescence, higher = more signal
Measured Property: composite z-score

>>> reported_measurement("OC([C@@H]1CC(c2ccccc2)=NO1)[C@H]1CC(c2ccccc2)=NO1 (some centres undefined)")
-0.158
>>> reported_measurement("O=C1NC(=O)C2C1C=CC(C(O)C(c1ccccc1)c1ccccc1)N2Nc1ccc(Cl)cc1Cl (centres undefined)")
0.982
>>> reported_measurement("COCCOC(=O)N1C(=O)[C@@]2(c3cc(C#CC4=CCCCC4)ccc31)[C@H](C(=O)N1CCc3cc(OC)c(OC)cc3C1)[C@H]1C(=O)O[C@H](c3ccccc3)[C@H](c3ccccc3)N1[C@@H]2c1ccc(OCCO)cc1")
1.09
>>> reported_measurement("COCCOC(=O)N1C(=O)[C@@]2(c3cc(C#Cc4ccc(OC)cc4)ccc31)[C@H](C(N)=O)[C@H]1C(=O)O[C@H](c3ccccc3)[C@H](c3ccccc3)N1[C@@H]2c1ccccc1OCCO")
1.08
>>> reported_measurement("CCCCC(=C=CC[C@@H](O)c1ccccc1OCCO)CCO")
-0.0525
>>> reported_measurement("C=CCOC(=O)[C@@H]1[C@H]2C(=O)O[C@H](c3ccccc3)[C@H](c3ccccc3)N2[C@H](c2ccc(OCCOC(=O)[C@@H]3C[C@@H]4C(=O)N[C@@H](Cc5ccccc5)C(=O)N4[C@@H]3c3ccc(O)cc3)cc2)[C@@]12C(=O)Nc1ccc(I)cc12")
1.11
>>> reported_measurement("O=C1OCCC/C=C\\[C@H]2OC34C=CCN(CCN5CCOCC5)C(=O)[C@H]3N(CCCO)C(=O)[C@@H]4C12 (some centres undefined)")
-0.93
>>> reported_measurement("Cc1ccc(C(C)CC(O)C2C=CC3C(=O)N(C)C(=O)C3N2NC(=O)OC(C)(C)C)o1 (centres undefined)")
1.06
>>> reported_measurement("[N-]=[N+]=NCc1ccccc1C[C@]1(C(=O)O)N=C(c2ccc(OCCCO)cc2)O[C@H]1c1ccccc1N=[N+]=[N-]")
1.14
>>> reported_measurement("CCOC(=O)C[C@H]1[C@H](OC(=O)c2cc3ccccc3oc2=O)[C@@H](NC(=O)Cc2ccc(OC)cc2)c2cc(OCCCO)ccc2N1C(=O)c1ccccc1")
0.0769
>>> reported_measurement("[N-]=[N+]=NCc1ccccc1C[C@]1(C(=O)N2CCOCC2)N=C(c2ccc(OCCCO)cc2)O[C@H]1c1ccccc1N=[N+]=[N-]")
1.03
>>> reported_measurement("CC(C)(C)OC(=O)CC[C@@]1(C(=O)NCCN2CCOCC2)N=C(c2ccc(OCCCO)cc2)O[C@@H]1c1ccccc1N=[N+]=[N-]")
1.11
>>> reported_measurement("CC(C)(C)C(=O)N[C@@H](c1ccc(Cl)cc1)[C@]1(C)C[C@H]1C1CCCCC1")
1.05
>>> reported_measurement("O=C1[C@H]2C=C(Br)[C@H](C[C@@H]2OCCCCO)[C@@]12CO2")
0.221
